assay: total protein half-life in vivo (active degradation + dilution); higher = more stable protein; settings: E. coli NCM3722 delta-clpP; growth: N-lim chemostat; doubling time 6 h

input-sequence	total protein half-life in vivo / h
MKKIGVILSGCGVYDGSEIHEAVLTLLAISRSGAQAVCFAPDKQQVDVINHLTGEAMTETRNVLIEAARITRGEIRPLAQADAAELDALIVPGGFGAAKNLSNFASLGSECTVDRELKALAQAMHQAGKPLGFMCIAPAMLPKIFDFPLRLTIGTDIDTAEVLEEMGAEHVPCPVDDIVVDEDNKIVTTPAYMLAQNIAEAASGIDKLVSRVLVLAE [P0ABU5]	4.46
MTNITLQKQHRTLWHFIPGLALSAVITGVALWGGSIPAVAGAGFSALTLAILLGMVLGNTIYPHIWKSCDGGVLFAKQYLLRLGIILYGFRLTFSQIADVGISGIIIDVLTLSSTFLLACFLGQKVFGLDKHTSWLIGAGSSICGAAAVLATEPVVKAEASKVTVAVATVVIFGTVAIFLYPAIYPLMSQWFSPETFGIYIGSTVHEVAQVVAAGHAISPDAENAAVISKMLRVMMLAPFLILLAARVKQLSGANSGEKSKITIPWFAILFIVVAIFNSFHLLPQSVVNMLVTLDTFLLAMAMAALGLTTHVSALKKAGAKPLLMALVLFAWLIVGGGAINYVIQSVIA	2.86
MCGRFAQSQTREDYLALLAEDIERDIPYDPEPIGRYNVAPGTKVLLLSERDEHLHLDPVFWGYAPGWWDKPPLINARVETAATSRMFKPLWQHGRAICFADGWFEWKKEGDKKQPFFIYRADGQPIFMAAIGSTPFERGDEAEGFLIVTAAADQGLVDIHDRRPLVLSPEAAREWMRQEISGKEASEIAASGCVPANQFSWHPVSRAVGNVKNQGAELIQPV	4.01

###

assay: total protein half-life in vivo (active degradation + dilution); higher = more stable protein; settings: wild type E. coli NCM3722; growth: C-lim chemostat; doubling time 6 h

input-sequence	unit-abbreviation	total protein half-life in vivo
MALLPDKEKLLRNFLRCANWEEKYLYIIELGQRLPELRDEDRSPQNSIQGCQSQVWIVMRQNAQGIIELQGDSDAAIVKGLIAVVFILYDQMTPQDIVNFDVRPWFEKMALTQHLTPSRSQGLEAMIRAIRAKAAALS	h	4.57
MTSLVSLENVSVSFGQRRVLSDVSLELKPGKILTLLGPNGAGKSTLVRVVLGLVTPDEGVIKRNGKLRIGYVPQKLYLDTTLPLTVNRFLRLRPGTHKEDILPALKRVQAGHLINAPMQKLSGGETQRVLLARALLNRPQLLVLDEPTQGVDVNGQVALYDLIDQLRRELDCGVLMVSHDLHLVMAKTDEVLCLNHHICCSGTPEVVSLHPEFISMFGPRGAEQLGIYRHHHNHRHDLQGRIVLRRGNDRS [P0A9X1]	h	4.39
MSSNFRHQLLSLSLLVGIAAPWAAFAQAPISSVGSGSVEDRVTQLERISNAHSQLLTQLQQQLSDNQSDIDSLRGQIQENQYQLNQVVERQKQILLQIDSLSSGGAAAQSTSGDQSGAAASTTPTADAGTANAGAPVKSGNANTDYNAAIALVQDKSRQDDAMVAFQNFIKNYPDSTYLPNANYWLGQLNYNKGKKDDAAYYFASVVKNYPKSPKAADAMFKVGVIMQDKGDTAKAKAVYQQVISKYPGTDGAKQAQKRLNAM	h	6.4
MSIDRTSPLKPVSTVQPRETTDAPVTNSRAAKTTASTSTSVTLSDAQAKLMQPGSSDINLERVEALKLAIRNGELKMDTGKIADALINEAQQDLQSN [P0AEM4]	h	0.442
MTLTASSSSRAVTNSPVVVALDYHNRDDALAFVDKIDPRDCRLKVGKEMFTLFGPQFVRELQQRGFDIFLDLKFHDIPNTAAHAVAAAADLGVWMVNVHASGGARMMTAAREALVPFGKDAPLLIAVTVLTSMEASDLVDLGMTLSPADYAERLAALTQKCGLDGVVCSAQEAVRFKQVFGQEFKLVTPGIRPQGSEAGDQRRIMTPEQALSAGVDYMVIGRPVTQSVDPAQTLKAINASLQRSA	h	6.45
MKTMLAAYLPGNSTVDLREVAVPTPGINQVLIKMKSSGICGSDVHYIYHQHRATAAAPDKPLYQGFINGHEPCGQIVAMGQGCRHFKEGDRVLVYHISGCGFCPNCRRGFPISCTGEGKAAYGWQRDGGHAEYLLAEEKDLILLPDALSYEDGAFISCGVGTAYEGILRGEVSGSDNVLVVGLGPVGMMAMMLAKGRGAKRIIGVDMLPERLAMAKQLGVMDHGYLATTEGLPQIIAELTHGGADVALDCSGNAAGRLLALQSTADWGRVVYIGETGKVEFEVSADLMHHQRRIIGSWVTSLFHMEKCAHDLTDWKLWPRNAITHRFSLEQAGDAYALMASGKCGKVVINFPD	h	2.74

###

assay: total protein half-life in vivo (active degradation + dilution); higher = more stable protein; conditions: wild type E. coli NCM3722; growth: C-lim chemostat; doubling time 12 h

input-sequence	total protein half-life in vivo
MPRFAANLSMMFTEVPFIERFAAARKAGFDAVEFLFPYNYSTLQIQKQLEQNHLTLALFNTAPGDINAGEWGLSALPGREHEAHADIDLALEYALALNCEQVHVMAGVVPAGEDAERYRAVFIDNIRYAADRFAPHGKRILVEALSPGVKPHYLFSSQYQALAIVEEVARDNVFIQLDTFHAQKVDGNLTHLIRDYAGKYAHVQIAGLPDRHEPDDGEINYPWLFRLFDEVGYQGWIGCEYKPRGLTEEGLGWFDAWR	6.54 h
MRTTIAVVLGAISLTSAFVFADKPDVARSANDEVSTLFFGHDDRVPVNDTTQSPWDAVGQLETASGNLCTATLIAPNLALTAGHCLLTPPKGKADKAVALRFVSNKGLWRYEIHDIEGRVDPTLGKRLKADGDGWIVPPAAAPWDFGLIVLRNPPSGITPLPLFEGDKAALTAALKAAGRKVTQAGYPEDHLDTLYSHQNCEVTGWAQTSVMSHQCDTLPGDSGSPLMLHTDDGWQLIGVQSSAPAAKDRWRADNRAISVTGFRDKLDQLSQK	9.64 h
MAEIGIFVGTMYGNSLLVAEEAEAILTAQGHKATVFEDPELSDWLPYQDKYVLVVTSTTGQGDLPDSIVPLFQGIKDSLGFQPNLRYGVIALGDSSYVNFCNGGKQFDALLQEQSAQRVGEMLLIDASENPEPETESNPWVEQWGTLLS	13.4 h
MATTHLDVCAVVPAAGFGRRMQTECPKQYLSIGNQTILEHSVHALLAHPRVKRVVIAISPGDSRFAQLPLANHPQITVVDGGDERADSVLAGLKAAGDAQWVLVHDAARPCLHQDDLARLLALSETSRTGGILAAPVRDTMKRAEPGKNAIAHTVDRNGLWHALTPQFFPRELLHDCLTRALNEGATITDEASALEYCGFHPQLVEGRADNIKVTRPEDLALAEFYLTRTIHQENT	10.6 h
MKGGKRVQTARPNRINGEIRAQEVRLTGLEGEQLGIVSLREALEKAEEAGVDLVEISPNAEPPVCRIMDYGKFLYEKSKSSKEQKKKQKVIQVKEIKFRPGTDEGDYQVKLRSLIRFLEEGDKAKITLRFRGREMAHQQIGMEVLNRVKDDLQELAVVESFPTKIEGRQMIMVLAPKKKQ [P0A707]	10.5 h
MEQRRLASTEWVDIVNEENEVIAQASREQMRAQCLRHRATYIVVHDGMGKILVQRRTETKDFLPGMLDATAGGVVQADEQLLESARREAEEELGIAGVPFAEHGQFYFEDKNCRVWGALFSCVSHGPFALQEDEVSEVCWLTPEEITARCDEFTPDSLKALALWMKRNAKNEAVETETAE	7.26 h
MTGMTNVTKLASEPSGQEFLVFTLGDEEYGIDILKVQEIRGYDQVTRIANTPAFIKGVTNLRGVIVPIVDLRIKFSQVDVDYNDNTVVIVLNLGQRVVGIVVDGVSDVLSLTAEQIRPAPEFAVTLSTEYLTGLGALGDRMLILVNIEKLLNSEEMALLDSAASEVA [P0A964]	3.67 h
MSWISPELIEILLTILKAVVILLVVVTCGAFMSFGERRLLGLFQNRYGPNRVGWGGSLQLVADMIKMFFKEDWIPKFSDRVIFTLAPMIAFTSLLLAFAIVPVSPGWVVADLNIGILFFLMMAGLAVYAVLFAGWSSNNKYSLLGAMRASAQTLSYEVFLGLSLMGVVAQAGSFNMTDIVNSQAHVWNVIPQFFGFITFAIAGVAVCHRHPFDQPEAEQELADGYHIEYSGMKFGLFFVGEYIGIVTISALMVTLFFGGWQGPLLPPFIWFALKTAFFMMMFILIRASLPRPRYDQVMSFGWKICLPLTLINLLVTAAVILWQAQ [P0AFD4]	13.8 h
MHEITLCQRALELIEQQAAKHGAKRVTGVWLKIGAFSCVETSSLAFCFDLVCRGSVAEGCKLHLEEQEAECWCETCQQYVTLLTQRVRRCPQCHGDMLQIVADDGLQIRRIEIDQE [P0A700]	11.3 h
MSTEKEKMIAGELYRSADETLSRDRLRARQLIHRYNHSLAEEHTLRQQILADLFGQVTEAYIEPTFRCDYGYNIFLGNNFFANFDCVMLDVCPIRIGDNCMLAPGVHIYTATHPIDPVARNSGAELGKPVTIGNNVWIGGRAVINPGVTIGDNVVVASGAVVTKDVPDNVVVGGNPARIIKKL	5.15 h
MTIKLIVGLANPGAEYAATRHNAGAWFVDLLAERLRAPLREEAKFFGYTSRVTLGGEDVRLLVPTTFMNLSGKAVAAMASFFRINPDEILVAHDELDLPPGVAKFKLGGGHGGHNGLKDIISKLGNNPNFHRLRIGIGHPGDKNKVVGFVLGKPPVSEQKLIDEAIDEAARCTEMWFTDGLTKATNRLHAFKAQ [P0A7D1]	10.5 h
MRLTSKGRYAVTAMLDVALNSEAGPVPLADISERQGISLSYLEQLFSRLRKNGLVSSVRGPGGGYLLGKDASSIAVGEVISAVDESVDATRCQGKGGCQGGDKCLTHALWRDLSDRLTGFLNNITLGELVNNQEVLDVSGRQHTHDAPRTRTQDAIDVKLRA [P0AGK8]	2.04 h
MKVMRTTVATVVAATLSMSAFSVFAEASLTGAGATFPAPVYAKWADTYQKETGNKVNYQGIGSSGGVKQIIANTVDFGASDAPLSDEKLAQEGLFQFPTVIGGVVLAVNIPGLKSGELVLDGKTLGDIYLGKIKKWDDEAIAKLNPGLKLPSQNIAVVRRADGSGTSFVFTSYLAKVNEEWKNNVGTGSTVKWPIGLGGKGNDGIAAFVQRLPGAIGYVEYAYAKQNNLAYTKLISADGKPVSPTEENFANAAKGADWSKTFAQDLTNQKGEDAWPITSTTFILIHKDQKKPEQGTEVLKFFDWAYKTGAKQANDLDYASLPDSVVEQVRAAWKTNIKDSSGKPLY [P0AG82]	11.7 h
